The measured values listed here are drawn from PubChem BioAssay AID485346.

STUDY_TARGET: Protein Mdm4 (Homo sapiens) + E3 ubiquitin-protein ligase Mdm2 (Homo sapiens) (UniProt O15151+Q00987)
Sequence (O15151 whole entry, looked up): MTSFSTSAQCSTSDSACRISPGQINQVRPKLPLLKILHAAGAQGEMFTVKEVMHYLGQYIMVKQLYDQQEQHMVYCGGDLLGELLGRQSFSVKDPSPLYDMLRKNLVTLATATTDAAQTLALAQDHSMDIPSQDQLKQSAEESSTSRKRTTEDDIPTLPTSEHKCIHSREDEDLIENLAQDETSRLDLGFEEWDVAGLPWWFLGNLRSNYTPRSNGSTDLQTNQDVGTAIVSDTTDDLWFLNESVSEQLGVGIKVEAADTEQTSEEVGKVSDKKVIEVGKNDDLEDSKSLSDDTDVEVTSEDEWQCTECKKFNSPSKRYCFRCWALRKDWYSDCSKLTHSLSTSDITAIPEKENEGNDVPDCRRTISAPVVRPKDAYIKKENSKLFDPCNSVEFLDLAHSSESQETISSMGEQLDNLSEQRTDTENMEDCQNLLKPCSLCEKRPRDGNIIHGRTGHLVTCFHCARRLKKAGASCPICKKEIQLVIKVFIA
Sequence (Q00987 whole entry, looked up): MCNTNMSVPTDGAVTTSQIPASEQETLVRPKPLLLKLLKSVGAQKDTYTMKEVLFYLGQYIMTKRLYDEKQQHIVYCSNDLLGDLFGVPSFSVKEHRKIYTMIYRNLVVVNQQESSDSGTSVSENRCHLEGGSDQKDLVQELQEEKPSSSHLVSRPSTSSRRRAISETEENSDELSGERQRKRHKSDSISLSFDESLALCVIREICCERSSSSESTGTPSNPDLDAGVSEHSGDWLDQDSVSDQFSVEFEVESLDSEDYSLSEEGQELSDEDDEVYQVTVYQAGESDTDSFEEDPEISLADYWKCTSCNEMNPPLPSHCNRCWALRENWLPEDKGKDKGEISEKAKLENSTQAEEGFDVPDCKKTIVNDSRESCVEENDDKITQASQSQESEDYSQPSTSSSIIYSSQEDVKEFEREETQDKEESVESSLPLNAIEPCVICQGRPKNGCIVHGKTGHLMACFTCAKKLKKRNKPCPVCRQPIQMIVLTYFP
EXPERIMENTAL_DETAILS: inhibitors of human Mdm2-MdmX association, primary screen, cell-based, luminescence, split luciferase, SaOS-2, uHTS (AID 485346)
RUN_PARAMETERS: SaOS-2 split-luciferase Mdm2/MdmX complementation, at 8 µM, active compounds read high
About 10,000 (3%) of roughly 330,000 compounds were called active. Many of the other results were omitted from the sample, so actives are more common in it than they were.
MEASURED_ENDPOINT: inhibition (%)

MOLECULE	RESULT_UNITS	VALUE_MEASURED
CC1(C(=O)NNC(=S)NCC2CCCO2)CC1(Cl)Cl (stereo unspecified)	%	9.98
O=C(O)CCn1c(O)c(C=C2N=c3ccccc3=N2)sc1=S	%	-11
O=S(=O)(NCc1cccnc1)c1ccc(Br)s1	%	1
CN(C)Cc1c(C(=O)N/N=C/c2ccccc2OCc2ccc(F)cc2)nnn1-c1nonc1N	%	14.6
c1ccc2c(c1)C(=NC1CCCCC1)NC2=NC1CCCCC1	%	94.3
CCN(C(=O)COC(=O)CCC(=O)c1cccs1)C1CCCCC1	%	18.7

###

STUDY_TARGET: Protein Mdm4 (Homo sapiens) + E3 ubiquitin-protein ligase Mdm2 (Homo sapiens) (UniProt O15151+Q00987)
EXPERIMENTAL_DETAILS: inhibitors of human Mdm2-MdmX association, primary screen, cell-based, luminescence, split luciferase, SaOS-2, uHTS (AID 485346)
RUN_PARAMETERS: SaOS-2 split-luciferase Mdm2/MdmX complementation, at 8 µM
Among all 330,000 compounds or so, about 10,000 (3%) were called active.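 Rule for the calls: active = inhibition of at least 50% at 8 µM in the primary screen; inactive = the rest.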 This excerpt belongs to a sample that is enriched for actives.
Outcomes: True for active, False for inactive

COMPOUND	CLASS_ASSIGNMENT
O=S(=O)([N-]c1nc2ccccc2nc1-[n+]1ccc(Cc2ccccc2)cc1)c1ccc(Br)s1	True
CC(=O)NC(Cc1ccccc1)C(=O)NC1CCN(c2ncccc2[N+](=O)[O-])CC1 (stereo not given)	False
COc1ccc(-c2cc(C3CCN(c4ncccc4[N+](=O)[O-])CC3)[nH]n2)cc1	True
COc1ccc(-c2cc3ncccc3cn2)cc1	False
O=C(NCc1ccccc1CN1CCCC1)C1CCN(S(=O)(=O)c2ccc(Cl)cc2)CC1	False

###

# maps each entry to its inhibition
STUDY_TARGET: Protein Mdm4 (Homo sapiens) + E3 ubiquitin-protein ligase Mdm2 (Homo sapiens) (UniProt O15151+Q00987)
EXPERIMENTAL_DETAILS: inhibitors of human Mdm2-MdmX association, primary screen, cell-based, luminescence, split luciferase, SaOS-2, uHTS (AID 485346)
RUN_PARAMETERS: SaOS-2 split-luciferase Mdm2/MdmX complementation, at 8 µM, active compounds read high
The campaign covered roughly 330,000 compounds. About 10,000 (3%) were called active. The sample holds actives, similar compounds and a random draw of the others, so the mix is not that of the screen.

COMPOUND	RESULT_UNITS	inhibition
COc1ccc(CCNC(=O)c2cnc(Cl)c(Cl)c2)cc1	%	-0.067
CCNC(=O)COC(=O)/C=C/c1c(C)nn(Cc2cccc(OC)c2)c1Cl	%	11.4
CC(Oc1cccc(Cl)c1)C(=O)NC1CC(C)(C)NC(C)(C)C1 (stereo unspecified)	%	12.5
COC(=O)c1sccc1NC(=S)Nc1ccc(C)cc1	%	-1.32
COc1ccc(NC(=O)/C(Cl)=C(/Cl)S(=O)Cc2ccc(C)cc2)cn1 (stereo unspecified)	%	91.5
Cc1cc(NS(=O)(=O)c2ccc(NC(=O)c3cccc(OC(F)F)c3)cc2)nc(C)n1	%	-4.83
O=C(Cc1nc2ccccc2[nH]c1=O)c1ccc(Cl)cc1	%	-186
COc1cccc(OC)c1C(=O)N1CCN(Cc2cccnc2)CC1	%	-4.03
CSCC[C@H](NC(=O)NC1CCCC1)C(=O)O	%	-12.4
CC1CCCCC12NC(=O)N(CC(=O)OCc1c(F)cccc1Cl)C2=O (stereo unspecified)	%	2.6
CCOc1ccc(S(=O)(=O)Nc2ccc(OC)nc2)cc1	%	-9.26
